Record form. Attribute: pIC50. Fill in for each entry.
Study Target: human NaV 1.8 (Homo sapiens)
Sequence (Q9Y5Y9 whole entry): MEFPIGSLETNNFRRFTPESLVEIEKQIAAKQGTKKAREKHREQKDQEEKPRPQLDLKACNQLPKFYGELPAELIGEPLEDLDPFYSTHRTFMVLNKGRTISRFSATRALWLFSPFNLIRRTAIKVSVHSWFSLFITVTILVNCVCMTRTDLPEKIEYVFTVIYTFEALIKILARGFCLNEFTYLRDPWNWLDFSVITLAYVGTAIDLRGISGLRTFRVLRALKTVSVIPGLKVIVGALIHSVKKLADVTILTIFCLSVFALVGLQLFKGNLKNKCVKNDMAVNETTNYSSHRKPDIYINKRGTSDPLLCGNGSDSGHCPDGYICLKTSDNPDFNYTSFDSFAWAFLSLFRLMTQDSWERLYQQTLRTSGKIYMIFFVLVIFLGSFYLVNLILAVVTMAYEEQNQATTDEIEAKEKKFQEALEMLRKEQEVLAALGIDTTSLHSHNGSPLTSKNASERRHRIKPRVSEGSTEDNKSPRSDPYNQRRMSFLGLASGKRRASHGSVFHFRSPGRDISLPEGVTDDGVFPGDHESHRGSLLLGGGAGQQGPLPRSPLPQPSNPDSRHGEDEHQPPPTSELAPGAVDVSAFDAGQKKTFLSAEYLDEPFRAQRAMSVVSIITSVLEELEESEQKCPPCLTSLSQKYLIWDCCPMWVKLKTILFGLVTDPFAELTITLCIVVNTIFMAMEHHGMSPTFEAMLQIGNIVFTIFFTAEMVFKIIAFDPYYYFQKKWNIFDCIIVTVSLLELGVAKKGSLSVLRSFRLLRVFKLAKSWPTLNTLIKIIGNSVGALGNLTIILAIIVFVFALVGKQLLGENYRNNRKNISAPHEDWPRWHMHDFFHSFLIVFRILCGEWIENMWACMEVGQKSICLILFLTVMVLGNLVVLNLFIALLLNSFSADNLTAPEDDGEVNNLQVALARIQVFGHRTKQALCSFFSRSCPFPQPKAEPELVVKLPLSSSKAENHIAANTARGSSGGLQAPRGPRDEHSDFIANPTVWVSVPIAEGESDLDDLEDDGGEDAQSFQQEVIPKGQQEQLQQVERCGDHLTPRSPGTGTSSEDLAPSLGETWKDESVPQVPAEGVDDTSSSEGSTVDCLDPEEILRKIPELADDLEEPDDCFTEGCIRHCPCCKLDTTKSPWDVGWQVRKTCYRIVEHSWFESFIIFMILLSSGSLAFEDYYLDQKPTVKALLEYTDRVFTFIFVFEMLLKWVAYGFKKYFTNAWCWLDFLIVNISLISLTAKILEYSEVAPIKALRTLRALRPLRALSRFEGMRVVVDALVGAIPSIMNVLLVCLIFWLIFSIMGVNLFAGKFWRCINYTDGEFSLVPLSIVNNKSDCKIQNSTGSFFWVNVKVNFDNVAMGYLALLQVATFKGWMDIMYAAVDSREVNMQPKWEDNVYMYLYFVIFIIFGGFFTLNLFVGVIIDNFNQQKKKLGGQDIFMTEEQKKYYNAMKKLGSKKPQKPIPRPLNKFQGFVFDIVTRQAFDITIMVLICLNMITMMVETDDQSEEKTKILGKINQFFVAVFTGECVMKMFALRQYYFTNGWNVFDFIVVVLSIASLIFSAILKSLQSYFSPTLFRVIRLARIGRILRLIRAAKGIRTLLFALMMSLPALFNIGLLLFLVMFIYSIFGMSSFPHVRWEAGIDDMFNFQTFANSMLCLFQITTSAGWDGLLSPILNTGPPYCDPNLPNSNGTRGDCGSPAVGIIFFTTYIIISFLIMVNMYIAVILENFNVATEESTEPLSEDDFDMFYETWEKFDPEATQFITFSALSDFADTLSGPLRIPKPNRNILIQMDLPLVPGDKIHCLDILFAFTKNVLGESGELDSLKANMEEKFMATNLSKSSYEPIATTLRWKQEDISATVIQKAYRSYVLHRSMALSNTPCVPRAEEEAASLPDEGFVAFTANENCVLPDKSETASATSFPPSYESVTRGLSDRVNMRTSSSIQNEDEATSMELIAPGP
Protocol Details: Automated whole-cell patch clamp (Qube384) voltage-clamp recordings of sodium currents in HEK-NaV1.8 cell line
Assay Setup: read-out: Potency category (human NaV 1.8 IC50)
pIC50: −log10 of the molar value.

Consider the worked cases shown below.
CC1(Cn2nc(C3CC3)c(C(F)(F)F)c2C(=O)Nc2cncc(S(C)(=N)=O)c2)CC(F)(F)C1 (single isomer, unassigned) [Example 46b] ... ≥ 7.00
CC1(Cn2nc(C3(C(F)F)CC3)c(C(F)(F)F)c2C(=O)Nc2ccnc(S(C)(=N)=O)c2)CC(F)(F)C1 (single isomer, unassigned) [Example 145a] ... ≥ 7.00

Next, consider the following compound.
For the compound COC12CC(c3nn(CC4(C)CC(F)(F)C4)c(C(=O)Nc4ccnc(S(C)(=N)=O)c4)c3C(F)(F)F)(C1)C2 (stereo not drawn) [Example 122] , the measured pIC50 on human NaV 1.8 (Homo sapiens) was ≥ 7.00

From: patent US12685726B2
